test system: transactivating tegument protein VP16 (Human herpesvirus 1); experiment: VP16 transactivation reporter inhibitors, counter-screen for SRC2 inhibitor project, cell-based, luminescence, single concentration (AID 652007); conditions: cell-based VP16 transactivation luciferase reporter, at 8.9 µM
The source made the active and inactive calls. Cut-off read from the data, not from the text of the source: active = inhibition above about 36%; inactive = the rest.
Outcomes: 1 (yes) = active, 0 (no) = inactive

- COMPOUND: "CCN(CC)c1nc(C=Cc2ccc(N(C)C)cc2)c2nccnc2n1"
  CATEGORY: "0 (no)"
- COMPOUND: "CCOC(=O)C1CCN(C(=O)c2ccc(OCC(=O)Nc3cccc(C(F)(F)F)c3)c(OC)c2)CC1"
  CATEGORY: "0 (no)"
- COMPOUND: "Cc1ccc(OCC(=O)NC(=S)Nc2ccccn2)c(Br)c1"
  CATEGORY: "0 (no)"
- COMPOUND: "CC(=O)N1/C(=C/c2ccc(N(C)C)cc2)C(=O)c2ccccc21"
  CATEGORY: "0 (no)"
- COMPOUND: "CCOC(=O)c1ccc(NC(=O)c2ccc(C)c(S(=O)(=O)N3CCOCC3)c2)cc1"
  CATEGORY: "1 (yes)"
- COMPOUND: "Cc1ccc(S(=O)(=O)N2CCC(C(=O)Nc3ccc(S(=O)(=O)N4CCOCC4)cc3)CC2)cc1"
  CATEGORY: "0 (no)"
- COMPOUND: "COc1cc2[nH]c3c(=O)n4c(nc3c2cc1OC)SCCC4"
  CATEGORY: "0 (no)"
- COMPOUND: "COC(=O)Cc1[nH]n(-c2nc3ccccc3s2)c(=O)c1C(C)=Nc1ccc(OC)cc1"
  CATEGORY: "1 (yes)"
- COMPOUND: "CC1=CC(C)(C)Nc2ccc(OC(=O)c3cccnc3)cc21"
  CATEGORY: "0 (no)"
- COMPOUND: "CCOC(=O)c1c(NC(=O)C2=COCCO2)sc2c1CCN(C(=O)OC)C2"
  CATEGORY: "0 (no)"
- COMPOUND: "COc1ccc(Nc2ncnc3ccc(Br)cc23)c(OC)c1"
  CATEGORY: "0 (no)"
- COMPOUND: "Cc1ccc(Oc2ccc(C(=O)NCc3ccncc3)cc2)cc1"
  CATEGORY: "0 (no)"
- COMPOUND: "COCCn1c(C)cc(C(=O)CSc2nnnn2C2CCCC2)c1C"
  CATEGORY: "0 (no)"
- COMPOUND: "COC(=O)c1ccc(Sc2nnnn2-c2ccccc2)c([N+](=O)[O-])c1"
  CATEGORY: "0 (no)"
- COMPOUND: "COc1cccc(N2CCN(C(=O)c3ccc(CS(=O)c4ccc(Cl)cc4)o3)CC2)c1 (stereo not given)"
  CATEGORY: "0 (no)"
- COMPOUND: "CCN(Cc1ccc(OC)c(F)c1)C(=O)CCl"
  CATEGORY: "0 (no)"
- COMPOUND: "O=C(NC1=NCCS1)C1COc2ccccc2O1 (stereo not given)"
  CATEGORY: "0 (no)"
- COMPOUND: "C=CCSc1nsc(NC(=O)Nc2cccc(C(C)=O)c2)n1"
  CATEGORY: "0 (no)"
- COMPOUND: "CC(C)Cc1nnc(NC(=O)CCC(=O)N2CCN(Cc3ccccc3)CC2)s1"
  CATEGORY: "0 (no)"
- COMPOUND: "CN(Cc1ccccc1F)C(=O)C1CCC(CNS(=O)(=O)c2cccc3cccnc23)CC1 (stereo not given)"
  CATEGORY: "0 (no)"
- COMPOUND: "Cc1onc(C(=O)N2CCC(Cc3ccccc3)CC2)c1[N+](=O)[O-]"
  CATEGORY: "0 (no)"
- COMPOUND: "CC(=O)n1cc(N(C(=O)CCl)c2ccccc2)c2ccccc21"
  CATEGORY: "1 (yes)"
- COMPOUND: "Cc1ccc(NC(=O)c2nc(S(=O)(=O)Cc3ccccc3)ncc2Cl)cc1"
  CATEGORY: "1 (yes)"
- COMPOUND: "Clc1ccc(-n2ncc3c(N4CCCCCC4)ncnc32)cc1"
  CATEGORY: "1 (yes)"
- COMPOUND: "O=C(CCCN1C(=O)/C(=C/c2ccccc2)SC1=S)NCCCn1ccnc1"
  CATEGORY: "1 (yes)"
- COMPOUND: "O=C(CCCN1C(=O)/C(=C/c2ccccc2Cl)SC1=S)NNC(=O)c1ccc(Cl)cc1"
  CATEGORY: "1 (yes)"
- COMPOUND: "Cc1ccccc1C(=O)N1CCN(c2ccc(NC(=O)c3ccc4c(c3)OCCO4)cc2)CC1"
  CATEGORY: "0 (no)"
- COMPOUND: "CCOc1ccc(-c2noc(CCC(=O)O)n2)cc1"
  CATEGORY: "1 (yes)"
- COMPOUND: "CC(C)(C)C(=O)/C(=C/c1ccc(Cl)cc1)n1cncn1"
  CATEGORY: "1 (yes)"
- COMPOUND: "N=c1nc(SCCC(=O)O)ss1"
  CATEGORY: "0 (no)"
- COMPOUND: "O=C(c1ccc(S(=O)(=O)Cc2cc(F)ccc2F)c([N+](=O)[O-])c1)N1CCOCC1"
  CATEGORY: "0 (no)"
- COMPOUND: "CC(=O)N1CCCc2cc(S(=O)(=O)N3CCCC(C(=O)NCc4ccccc4Cl)C3)ccc21 (stereo not given)"
  CATEGORY: "0 (no)"
- COMPOUND: "Cc1cc(C2=NNC(=NC3CC3)SC2)c(C)n1-c1ccccc1F"
  CATEGORY: "1 (yes)"
- COMPOUND: "Cc1ccccc1C(=O)N1CCN(c2ccc(NC(=O)c3ccccc3[N+](=O)[O-])cc2)CC1"
  CATEGORY: "0 (no)"
- COMPOUND: "Nc1ccc(Oc2ccccc2-c2ccccc2)cc1"
  CATEGORY: "1 (yes)"
- COMPOUND: "CC(C)(C)c1ccc(C(=O)Nc2ccc(CC(=O)O)cc2)o1"
  CATEGORY: "1 (yes)"
- COMPOUND: "COc1ccc2[nH]c3c(c2c1)CC(C)NC3=O (stereo not given)"
  CATEGORY: "0 (no)"
- COMPOUND: "CCOC(=O)c1[nH]c(=S)n(-c2ccccc2)c1C(=O)OCC"
  CATEGORY: "0 (no)"
- COMPOUND: "O=C(O)c1ccc(N/N=C/c2ccc3nccnc3c2)cc1"
  CATEGORY: "1 (yes)"
- COMPOUND: "S=C(NCCCCN(Cc1ccc(Cl)cc1)c1ccc(Br)cn1)NCCCc1cnc[nH]1"
  CATEGORY: "0 (no)"
- COMPOUND: "C/C(CC(C)(C)C1CCCCC1)=N\\NC(N)=S"
  CATEGORY: "1 (yes)"
- COMPOUND: "Cc1[nH]nc2ncc(C(=O)c3ccccc3O)cc12"
  CATEGORY: "0 (no)"
- COMPOUND: "O=c1cnnc(N/N=C/c2ccccn2)[nH]1"
  CATEGORY: "0 (no)"
- COMPOUND: "CCOC(=O)NNC(=O)CCn1c2c(c3ccccc31)CCCC2"
  CATEGORY: "0 (no)"
- COMPOUND: "O=C(Nc1nc2ccccc2[nH]1)c1ccccc1F"
  CATEGORY: "1 (yes)"
